Source of measurements: the supplement of paper PMC10567573

Test: protein stability index of a GFP-peptide fusion (GPS, HEK-293T) (PSI 1-6); higher = more stable;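 further: 24-mer peptide tiles fused after GFP, lentivirally expressed, FACS-sorted into six equal bins by GFP/DsRed ratio, decoded by Illumina sequencing, PSI is the read-weighted mean bin number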
Conditions: treatment: MLN4924 1 uM, 8 h; c terminus: a fixed tail appended
Rule: true for protein stability index not less than 3, false for anything less.

[[record]]
query_sequence = "NHFDMHRVGKWHQDFPVKKRKKLS [ZNF75A]"
category_label = "true"

[[record]]
query_sequence = "PGVHRRYSALREESAKDWETSPLP [PPFIA4]"
category_label = "true"

[[record]]
query_sequence = "YSSRTPGTPGTPSYPRTPHTPGTP [MAP2]"
category_label = "true"

[[record]]
query_sequence = "DTDKWIQKAPMTTVRGLHCMCTVG [KLHL13]"
category_label = "false"

[[record]]
query_sequence = "SWEKVTGHNSPLYKRQEESGAAAS [CHIT1]"
category_label = "true"

[[record]]
query_sequence = "VVCASYEDYGHWLLCLRAVTHREG [PLEKHN1]"
category_label = "false"

[[record]]
query_sequence = "ICGLQQDEEVSSLTCDALTELLAK [CCND2]"
category_label = "true"

[[record]]
query_sequence = "SADRLTVRCGLLGSLGPVPVLRFD [TRIM14]"
category_label = "false"

[[record]]
query_sequence = "LSGATKKGTEKQTTSETQKSVQCG [NETO1]"
category_label = "true"

[[record]]
query_sequence = "AAARAAQRRRRVENAGGSPSPEPA [RSAD1]"
category_label = "true"

[[record]]
query_sequence = "LIKKYSDHLENVSKLVESGIQFMD [TRIM55]"
category_label = "false"

[[record]]
query_sequence = "RLMSFRPICSANHKESKMTIFEKE [CRYBA1]"
category_label = "true"

[[record]]
query_sequence = "LSNKNGKNVELKFVDSIRRQFEFS [TENT5C]"
category_label = "false"

[[record]]
query_sequence = "TPTSLSSLSNAVANTMEHLSLLDN [FBXO33]"
category_label = "true"

[[record]]
query_sequence = "KCRSTISAEKCGPPPPIDNGDITS [CFHR2]"
category_label = "true"


---

Experiment: protein stability index of a GFP-peptide fusion (GPS, HEK-293T) (PSI 1-6); higher = more stable
Settings: treatment: DMSO; c terminus: a fixed tail appended
// reported protein stability index for each item listed
parameter-measured: protein stability index

[[record]]
query_sequence = "EPLYNWQATKASLKERFAFLFNSE [BTBD1]"
parameter_measured = "protein stability index"
readout_value = 2.97

[[record]]
query_sequence = "VLSNMEKLFCIPVHGIRSVGTAAV [IMPA1]"
parameter_measured = "protein stability index"
readout_value = 2.09

[[record]]
query_sequence = "ALRAAEVWMDDFKSHVYMAWNIPM [GALNT9]"
parameter_measured = "protein stability index"
readout_value = 2.35

[[record]]
query_sequence = "LGVYSALREIAFTRQLHEKTSQLS [ATE1]"
parameter_measured = "protein stability index"
readout_value = 2.59

[[record]]
query_sequence = "SEEMVKMVLSRPCHPDDQFTTSIL [INTS3]"
parameter_measured = "protein stability index"
readout_value = 2.94

[[record]]
query_sequence = "YLLTVMAAAAKAFKHPSIRNPVSL [ADAMTS4]"
parameter_measured = "protein stability index"
readout_value = 2.56

[[record]]
query_sequence = "PPNQQMSPSPMSHGHYSMHCLHSA [DLX1]"
parameter_measured = "protein stability index"
readout_value = 3.1

[[record]]
query_sequence = "IFQEQQKKWQQYRSVRRERLKEMK [FAM9B]"
parameter_measured = "protein stability index"
readout_value = 3.22

[[record]]
query_sequence = "SADRLTVRCGLLGSLGPVPVLRFD [TRIM14]"
parameter_measured = "protein stability index"
readout_value = 2.12

[[record]]
query_sequence = "RLICDFPFDGLLEERALLLGRMGK [VPS39]"
parameter_measured = "protein stability index"
readout_value = 2.28

[[record]]
query_sequence = "RCVKSIIRQVLQGLDYLHSKCKII [SRPK2]"
parameter_measured = "protein stability index"
readout_value = 2.73

[[record]]
query_sequence = "PQIPVDRGSETTYESSADIAGDEG [TAF7L]"
parameter_measured = "protein stability index"
readout_value = 5.46

[[record]]
query_sequence = "QKAGVTRSGRLILWEAPPLGAGGG [NEK8]"
parameter_measured = "protein stability index"
readout_value = 3.31

[[record]]
query_sequence = "IGALTYFAQADALKGTLVSTLKEV [ACSBG2]"
parameter_measured = "protein stability index"
readout_value = 2.21

[[record]]
query_sequence = "LVHTQEPGEWLELLLEPGSLYILR [ALKBH7]"
parameter_measured = "protein stability index"
readout_value = 2.38

[[record]]
query_sequence = "LTGLNYEAPKYHIPYWVAYYLALL [NSDHL]"
parameter_measured = "protein stability index"
readout_value = 2.71

[[record]]
query_sequence = "ATNDDPWGPSGQLMGEIAKATFMY [CLINT1]"
parameter_measured = "protein stability index"
readout_value = 2.34

[[record]]
query_sequence = "RLMSFRPICSANHKESKMTIFEKE [CRYBA1]"
parameter_measured = "protein stability index"
readout_value = 3.14

[[record]]
query_sequence = "SKAGPTRIFTSNTHSSVVLQGFDQ [KLHL13]"
parameter_measured = "protein stability index"
readout_value = 3.53

[[record]]
query_sequence = "GGGGTQRLPRAIGMSLAKELIFSA [AUH]"
parameter_measured = "protein stability index"
readout_value = 2.54

[[record]]
query_sequence = "YFLLCDVLPEDRILREELQKQRLR [ZNF277]"
parameter_measured = "protein stability index"
readout_value = 2.37

[[record]]
query_sequence = "SLRKGASLSNGQGSRVLHVVQTLY [NCK2]"
parameter_measured = "protein stability index"
readout_value = 2.29

[[record]]
query_sequence = "FWPAKVMQKEDNQVDVRFFGHHHQ [ZMYND11]"
parameter_measured = "protein stability index"
readout_value = 2.71

[[record]]
query_sequence = "AEGRTGFPWIDAIMTQLRQEGWIH [CRY1]"
parameter_measured = "protein stability index"
readout_value = 2.35

[[record]]
query_sequence = "LIKALKIFQEKHVNLLHIESRKSK [TPH1]"
parameter_measured = "protein stability index"
readout_value = 2.28

[[record]]
query_sequence = "MASPDDPLRADHMVKEPVEDTDPS [EDARADD]"
parameter_measured = "protein stability index"
readout_value = 5.52

[[record]]
query_sequence = "DPIVRPLWWIAPGDETAHRIDSQF [MYORG]"
parameter_measured = "protein stability index"
readout_value = 3.23

[[record]]
query_sequence = "GEDSSTSSSTPLEDEEPQEPNRLE [RTN2]"
parameter_measured = "protein stability index"
readout_value = 5.56

[[record]]
query_sequence = "RKPDYTAYVAMIPQCIKEEDTPSD [ATF4]"
parameter_measured = "protein stability index"
readout_value = 4.47

